Hi there, I'd appreciate the recorded pIC50 for every entry that follows.
measurement.target: AuroraA-TPX2 (Homo sapiens, UniProt O14965)
Construct: 20 µL of AuroraA-TPX2 KD GST; GST
Sequence (O14965 133-383 limits assumed): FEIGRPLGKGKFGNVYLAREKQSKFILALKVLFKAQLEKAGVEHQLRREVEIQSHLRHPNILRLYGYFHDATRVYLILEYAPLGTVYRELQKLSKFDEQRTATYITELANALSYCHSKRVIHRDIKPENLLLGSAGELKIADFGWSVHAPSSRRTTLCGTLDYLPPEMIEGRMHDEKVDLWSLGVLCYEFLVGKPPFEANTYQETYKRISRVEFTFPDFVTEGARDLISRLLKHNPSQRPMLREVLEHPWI
Sequence (Q9ULW0 1-43 partner limits assumed): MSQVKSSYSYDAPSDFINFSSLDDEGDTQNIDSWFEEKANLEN
assay.notes: AuroraA-TPX2 Homogeneous Time Resolved Fluorescent (HTRF) kinase assay
Type: biochemical
setup.conditions: average; given as class symbols; read-out: AurA/TP X2_ IC50_IP (Avg)
pIC50: −log10 of the molar value.

INSERT INTO results (compound, result) VALUES
  ('COc1cccc(-c2nnc(Nc3ccc(Oc4ncccc4-c4ccnc(NCCCN5CCCC5)n4)cc3)c3ccccc23)n1 [compound 455]', '≥ 7.00'),
  ('Nc1nccc(-c2cccnc2Oc2ccc(Nc3nnc(-c4cccc(CCCO)c4)c4ccccc34)cc2)n1 [compound 344]', '≥ 7.00'),
  ('Nc1nccc(-c2cccnc2Oc2ccc(Nc3nnc(-c4cc(O)ccc4F)c4ccccc34)cn2)n1 [compound 379]', '≥ 7.00'),
  ('C[C@H]1CN(CCCNc2nccc(-c3cccnc3Oc3ccc(Nc4nnc(-c5ccccc5)c5ccccc45)cc3)n2)CCN1 [compound 411]', '≥ 7.00'),
  ('c1ccc(-c2nnc(Nc3ccc(Oc4ncccc4-n4ccnc4)cc3)c3ccccc23)cc1 [compound 268]', '5.60 to 6.30'),
  ('Nc1nccc(-c2cccnc2Oc2ccc(Nc3nnc(-c4ccccc4)cc3-c3ccccc3)cc2)n1 [compound 246]', '5.60 to 6.30');

Could you now consider this next compound?
Query block: Note down pIC50 recorded for Nc1nccc(-c2cccnc2Oc2ccc(Nc3nnc(-c4cccc(OC(F)(F)F)c4)c4ccccc34)cn2)n1 [compound 378]
Result block: ≥ 7.00
